Reference source: paper PMC11117716

Assay: clinical
Details: human, in vivo
experimental endpoint: half-life

CN1CC[C@]2(C)c3cc(OC(=O)Nc4ccccc4)ccc3N(C)C12.O=C(O)C(O)C(O)C(=O)O (some centres unmarked) [Posiphen]
> 12 h
CN1CC[C@]2(C)c3cc(OC(=O)Nc4ccccc4)ccc3NC12 (some centres unmarked) [N8, N8-norposiphen]
> 12 h

---

Experiment: Plasma pharmacokinetics after oral Posiphen in Sprague Dawley rats (LC-MS/MS)
Assay type: in vivo, rat
Conditions: both sexes, Sprague Dawley, rat, in vivo, po, 40 mg/kg, rat plasma, Posiphen PO 40 mg/kg, n = 6
experimental endpoint: Tmax

CN1CC[C@]2(C)c3cc(OC(=O)Nc4ccccc4)ccc3N(C)C12.O=C(O)C(O)C(O)C(=O)O (stereo partly shown)
< 1 h

---

Experiment: Plasma pharmacokinetics after oral Posiphen in CD-1 mice (LC-MS/MS)
Conditions: both, CD-1, mouse, in vivo, 65 mg/kg
experimental endpoint: concentration at 1.5 h (ng/mL)

CN1CC[C@]2(C)c3cc(OC(=O)Nc4ccccc4)ccc3NC12 (some centres unmarked)
1930
CN1c2ccc(OC(=O)Nc3ccccc3)cc2[C@@]2(C)CCNC12 (some centres unmarked)
525

---

Assay: in vivo
Conditions: both, CD-1, mouse, in vivo, po, 65 mg/kg, Tmax, mouse plasma, Posiphen PO 65 mg/kg, n = 7
experimental endpoint: Tmax

CN1CC[C@]2(C)c3cc(OC(=O)Nc4ccccc4)ccc3N(C)C12.O=C(O)C(O)C(O)C(=O)O (stereo partly shown)
< 1 h

---

Assay: in vivo
Conditions: CD-1, mouse, in vivo
experimental endpoint: Kp

CN1CC[C@]2(C)c3cc(OC(=O)Nc4ccccc4)ccc3N(C)C12.O=C(O)C(O)C(O)C(=O)O (stereo partly shown)
0.17

---

concentration at 1 h by entry:
Assay: Plasma pharmacokinetics after oral Posiphen in CD-1 mice (LC-MS/MS)
Details: both, CD-1, mouse, in vivo, 65 mg/kg
experimental endpoint: concentration at 1 h (ng/mL)

CN1c2ccc(OC(=O)Nc3ccccc3)cc2[C@@]2(C)CCNC12 (some centres unmarked) [N1, N1-norposiphen]
446
CN1CC[C@]2(C)c3cc(OC(=O)Nc4ccccc4)ccc3NC12 (some centres unmarked) [N8, N8-norposiphen]
1560

---

Assay: in vivo
Settings: CD-1, mouse
experimental endpoint: Kp

CN1CC[C@]2(C)c3cc(OC(=O)Nc4ccccc4)ccc3N(C)C12.O=C(O)C(O)C(O)C(=O)O (stereo partly shown)
5.04

---

Assay: in vivo
Details: CD-1, mouse, in vivo, po, 65 mg/kg, Cmax, Table 2, mouse CSF, oral Posiphen
Cmax by entry:
experimental endpoint: Cmax (µg/mL)

CN1c2ccc(OC(=O)Nc3ccccc3)cc2[C@@]2(C)CCNC12 (some centres unmarked)
0.0545
CN1CC[C@]2(C)c3cc(OC(=O)Nc4ccccc4)ccc3NC12 (some centres unmarked)
0.309

---

Test: Plasma pharmacokinetics after oral Posiphen in CD-1 mice (LC-MS/MS)
Conditions: both, CD-1, mouse, in vivo, 65 mg/kg
concentration at 0.25 h by entry:
experimental endpoint: concentration at 0.25 h

CN1CC[C@]2(C)c3cc(OC(=O)Nc4ccccc4)ccc3NC12 (some centres unmarked)
882 ng/mL
CN1c2ccc(OC(=O)Nc3ccccc3)cc2[C@@]2(C)CCNC12 (some centres unmarked)
350 ng/mL

---

Assay: Plasma pharmacokinetics after oral Posiphen in Sprague Dawley rats (LC-MS/MS)
Assay type: in vivo, rat
Settings: both sexes, Sprague Dawley, rat, in vivo, po, 40 mg/kg; read-out: AUC (0–8 h)
experimental endpoint: AUC(0-t) (ng·h/mL)

CN1CC[C@]2(C)c3cc(OC(=O)Nc4ccccc4)ccc3N(C)C12.O=C(O)C(O)C(O)C(=O)O (stereo partly shown) [Posiphen]
1140

---

Assay: Plasma pharmacokinetics after oral Posiphen in humans (LC-MS/MS)
Type: in vivo, human
Settings: human, in vivo, po; read-out: AUC (0-t)
AUC(0-t) by entry:
experimental endpoint: AUC(0-t) (µg·h/mL)

C[C@]12CCNC1Nc1ccc(OC(=O)Nc3ccccc3)cc12 (stereo partly shown)
0.0369
CN1CC[C@]2(C)c3cc(OC(=O)Nc4ccccc4)ccc3N(C)C12.O=C(O)C(O)C(O)C(=O)O (stereo partly shown)
0.565
CN1c2ccc(OC(=O)Nc3ccccc3)cc2[C@@]2(C)CCNC12 (stereo partly shown)
0.213
CN1CC[C@]2(C)c3cc(OC(=O)Nc4ccccc4)ccc3NC12 (stereo partly shown)
0.26

---

Assay: in vivo
Conditions: both, CD-1, mouse, in vivo, po, 65 mg/kg, T1/2, mouse plasma, Posiphen PO 65 mg/kg, n = 7
experimental endpoint: half-life

CN1CC[C@]2(C)c3cc(OC(=O)Nc4ccccc4)ccc3N(C)C12.O=C(O)C(O)C(O)C(=O)O (stereo partly shown)
33.6 min

---

Assay: in vivo
Design: species or system dog
Conditions: both sexes, Beagle, dog, in vivo, po, 20 mg/kg
experimental endpoint: Cmax (ng/mL)

CN1CC[C@]2(C)c3cc(OC(=O)Nc4ccccc4)ccc3N(C)C12.O=C(O)C(O)C(O)C(=O)O (stereo partly shown)
402

---

Experiment: Plasma pharmacokinetics after oral Posiphen in Sprague Dawley rats (LC-MS/MS)
Format: in vivo, rat
Details: both sexes, Sprague Dawley, rat, in vivo, 40 mg/kg
experimental endpoint: concentration at 2 h

CN1CC[C@]2(C)c3cc(OC(=O)Nc4ccccc4)ccc3N(C)C12.O=C(O)C(O)C(O)C(=O)O (stereo partly shown) [Posiphen]
381 ng/mL

---

Test: LogD
Format: physicochemical
experimental endpoint: logD

CN1CC[C@]2(C)c3cc(OC(=O)Nc4ccccc4)ccc3N(C)C12.O=C(O)C(O)C(O)C(=O)O (stereo partly shown)
2.2

---

Assay: Posiphen pharmacokinetics compared across species (mouse, rat, dog, human)
Format: in vivo
Conditions: CSF or brain, oral
Method: This paper describes data from multiple studies. The detection limit was 0.025 ng/mL.
experimental endpoint: half-life

CN1CC[C@]2(C)c3cc(OC(=O)Nc4ccccc4)ccc3N(C)C12.O=C(O)C(O)C(O)C(=O)O (stereo partly shown)
> 12 h

---

Tmax by entry:
Test: Plasma pharmacokinetics after oral Posiphen in CD-1 mice (LC-MS/MS)
Details: both, CD-1, mouse, in vivo, po, 65 mg/kg
Protocol: The animal PKs were taken from multiple GLP toxicology studies, biomarker studies, and efficacy studies. […] Sample size (n) represents the number of animals at each time point of sample collection. […] The dose volume was determined according to animals’ weight collected on the dosing day. In mice, blood samples were collected via the saphenous vein or other suitable blood collection site into a microcentrifuge tube containing the anti-coagulant K2-EDTA on wet ice and processed for plasma. […]
experimental endpoint: Tmax (h)

CN1c2ccc(OC(=O)Nc3ccccc3)cc2[C@@]2(C)CCNC12 (some centres unmarked)
1.25
CN1CC[C@]2(C)c3cc(OC(=O)Nc4ccccc4)ccc3NC12 (some centres unmarked)
1.5

---

concentration at 4 h by entry:
Test: Plasma pharmacokinetics after oral Posiphen in CD-1 mice (LC-MS/MS)
Conditions: both, CD-1, mouse, in vivo, 65 mg/kg
Method: The animal PKs were taken from multiple GLP toxicology studies, biomarker studies, and efficacy studies. […] Sample size (n) represents the number of animals at each time point of sample collection. […] The dose volume was determined according to animals’ weight collected on the dosing day. In mice, blood samples were collected via the saphenous vein or other suitable blood collection site into a microcentrifuge tube containing the anti-coagulant K2-EDTA on wet ice and processed for plasma. […]
experimental endpoint: concentration at 4 h

CN1CC[C@]2(C)c3cc(OC(=O)Nc4ccccc4)ccc3NC12 (some centres unmarked)
478 ng/mL
CN1c2ccc(OC(=O)Nc3ccccc3)cc2[C@@]2(C)CCNC12 (some centres unmarked)
83.6 ng/mL

---

Assay: in vivo
Conditions: CD-1, mouse, po, 65 mg/kg
Cmax by entry:
experimental endpoint: Cmax

CN1c2ccc(OC(=O)Nc3ccccc3)cc2[C@@]2(C)CCNC12 (stereo partly drawn)
1850 ng/mL
CN1CC[C@]2(C)c3cc(OC(=O)Nc4ccccc4)ccc3NC12 (stereo partly drawn)
7290 ng/mL
CN1CC[C@]2(C)c3cc(OC(=O)Nc4ccccc4)ccc3N(C)C12.O=C(O)C(O)C(O)C(=O)O (stereo partly drawn)
4740 ng/mL

---

Assay: Plasma pharmacokinetics after oral Posiphen in Sprague Dawley rats (LC-MS/MS)
Assay type: in vivo, rat
Settings: both sexes, Sprague Dawley, rat, in vivo, 40 mg/kg
experimental endpoint: concentration at 8 h (ng/mL)

CN1CC[C@]2(C)c3cc(OC(=O)Nc4ccccc4)ccc3N(C)C12.O=C(O)C(O)C(O)C(=O)O (stereo partly shown) [Posiphen]
234

---

Assay: in vivo
Parameters: species or system dog
Conditions: both sexes, Beagle, dog, in vivo, po, 20 mg/kg; read-out: AUC (0–8 h)
experimental endpoint: AUC(0-t) (ng·h/mL)

CN1CC[C@]2(C)c3cc(OC(=O)Nc4ccccc4)ccc3N(C)C12.O=C(O)C(O)C(O)C(=O)O (stereo partly shown)
756
